Biological target: T1, DDX21ΔN (human, UniProt Q9NR30 186-783)
T1 sequence: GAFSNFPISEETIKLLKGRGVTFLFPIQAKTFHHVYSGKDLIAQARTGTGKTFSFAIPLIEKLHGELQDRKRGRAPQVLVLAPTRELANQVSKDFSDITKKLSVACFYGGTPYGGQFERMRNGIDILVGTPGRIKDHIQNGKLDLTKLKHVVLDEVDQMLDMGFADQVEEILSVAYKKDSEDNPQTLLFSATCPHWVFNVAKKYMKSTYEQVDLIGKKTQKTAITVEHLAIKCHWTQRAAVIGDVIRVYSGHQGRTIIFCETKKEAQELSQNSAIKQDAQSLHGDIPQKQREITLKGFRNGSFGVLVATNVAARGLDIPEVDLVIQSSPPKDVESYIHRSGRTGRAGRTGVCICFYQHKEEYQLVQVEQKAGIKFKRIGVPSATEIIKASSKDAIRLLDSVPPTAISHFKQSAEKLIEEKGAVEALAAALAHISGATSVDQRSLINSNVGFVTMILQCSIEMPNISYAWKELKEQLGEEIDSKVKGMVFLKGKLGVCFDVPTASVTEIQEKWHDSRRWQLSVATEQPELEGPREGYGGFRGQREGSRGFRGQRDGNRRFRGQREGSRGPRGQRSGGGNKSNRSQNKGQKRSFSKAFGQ
Assay: fluorescence polarization; FP: 50 mM Tris pH 7.5, 50 mM KCl, 5 mM MgCl2, no ATP; Hill-slope fit; temperature not given in the material
Conditions: protein: recombinant; chain copies: 2; label: 5'-FAM on 15-mer; 3' overhang 15 nt
quantity_kind: Kd
Express the reported value numerically, then name its unit.

Q) Reported Kd, binder dsRNA 15/30mer 3' overhang (dsRNA) RNA 1: GUUUCGGAUCGACGC RNA 2: GCGUCGAUCCGAAACUAUACUUAAUUUUAA : ____
A) 15.5 nM
